- System: c-Abl (mouse)
- Experimental details: phosphorylation enrichment, bacterial display (enrichment ratio); higher = better substrate or ligand; peptides without Tyr show the background;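 further: 11-residue human phosphosite peptides and single-mutation variants displayed on the E. coli surface, counted by deep sequencing, each peptide's frequency after selection divided by its frequency in the unselected input library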;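 further: frequency after pTyr selection over input frequency; kinase dosed for 20-30% of maximal phosphorylation in three min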
Binned phosphorylation enrichment; ranges: class A = under 0.7, class B = from 0.7 up to 1, class C = 1 and over

Sequence record: YLENYYDLEKD [MMP3_Y42_K45E]
Cat: class B
--
Sequence record: GNLLIYTELGK [HGD_Y166_F169L]
Cat: class C
--
Sequence record: GNKENYGLPQP [BUB1_Y538]
Cat: class C

Now for a further sequence.
Field: class (phosphorylation enrichment) — entry: FRPPYYHRDCM [HGD_Y334_N337D] class A

====

- Target or test system: FGFR1 (UniProt P11362)
- Sequence (P11362 whole entry, looked up): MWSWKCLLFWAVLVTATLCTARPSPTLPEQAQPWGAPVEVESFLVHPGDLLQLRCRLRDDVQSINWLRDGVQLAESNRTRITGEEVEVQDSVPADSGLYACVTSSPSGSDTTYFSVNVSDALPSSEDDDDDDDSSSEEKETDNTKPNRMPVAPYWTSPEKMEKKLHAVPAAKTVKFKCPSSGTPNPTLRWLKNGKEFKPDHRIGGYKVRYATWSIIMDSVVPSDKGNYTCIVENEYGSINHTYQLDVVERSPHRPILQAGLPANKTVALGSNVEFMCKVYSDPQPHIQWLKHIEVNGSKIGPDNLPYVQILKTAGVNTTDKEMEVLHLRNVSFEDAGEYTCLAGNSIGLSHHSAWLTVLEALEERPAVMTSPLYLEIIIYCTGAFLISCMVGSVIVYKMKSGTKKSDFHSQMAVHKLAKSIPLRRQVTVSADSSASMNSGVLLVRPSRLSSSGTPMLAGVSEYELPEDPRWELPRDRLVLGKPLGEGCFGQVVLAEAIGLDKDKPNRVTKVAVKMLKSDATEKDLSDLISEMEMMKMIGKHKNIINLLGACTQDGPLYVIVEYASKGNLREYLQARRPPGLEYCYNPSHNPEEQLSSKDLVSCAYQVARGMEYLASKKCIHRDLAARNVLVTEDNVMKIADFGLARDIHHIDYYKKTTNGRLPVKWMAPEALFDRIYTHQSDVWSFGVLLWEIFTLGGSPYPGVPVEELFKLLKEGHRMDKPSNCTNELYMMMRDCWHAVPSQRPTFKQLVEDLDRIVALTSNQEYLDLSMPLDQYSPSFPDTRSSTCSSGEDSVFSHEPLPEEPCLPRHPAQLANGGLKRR
- Experimental details: phosphorylation enrichment, bacterial display (enrichment ratio); higher = better substrate or ligand; peptides without Tyr show the background
Parameter: phosphorylation enrichment
Output spec: single numeric token, no unit.

Consider the following illustrative entries.
Sequence record: IDSTPYGQWFE [RPS8_Y109_R110G_YF]
phosphorylation enrichment: 0.713

Sequence record: HESEIYGKVCF [CSRP3_Y57_C58G_YF]
phosphorylation enrichment: 0.813

Sequence record: PARLEYFENEK [IRS1_Y46_YF]
phosphorylation enrichment: 1.03

Then this sequence:
Item: DVSVVYSEVKT [FCRL4_Y493] Test system: FGFR1 (UniProt P11362) Read-out: phosphorylation enrichment Value: ? 0.775

====

- Test system: Fer (mouse)
- Experimental details: phosphorylation enrichment, bacterial display (enrichment ratio); higher = better substrate or ligand; peptides without Tyr show the background
Reported phosphorylation enrichment values for the following sequences.
A bare number is all that is needed in reply.

Worked examples follow.
Sequence record: GDKKAYVRLAP [RPL23A_Y137_E133D]
phosphorylation enrichment: 0.411
--
Sequence record: EEGNPYFSSTR [MCCC2_Y520_A524T_YF]
phosphorylation enrichment: 0.413

Dear colleague, I am looking for the recorded phosphorylation enrichment of the following sequence: KILTHYKQPHT [KMT2D_Y5349_R5351Q] 0.384

Now the sequence PDDPSYSLVDD [PSTPIP2_Y323_N322S] 0.728

And what about the sequence SSDKVYAHQMD [MLH1_Y379_V384D] ? 0.395

Same again, this time with FGHTFYNQAIM [MCCC2_Y196_R193H] 0.461

Please do the same for SLALFYRNVYH [RBL1_Y792_K794N] as well. 0.45

What about this sequence? KSRQIYDAFIM [GRK3_Y109_R104K_YF] 14.4

DQVEQCKKELE [LMNA_Y259_Y259C] , same question. 0.518

// next record PPGRSYSPYDY [TNS1_Y793] 1.11

Could you do the same for NTYEKYLGEEY [TF_Y669] , please? 0.523

====

- Target or test system: Jak2 (UniProt O60674)
- Sequence (O60674 whole entry, looked up): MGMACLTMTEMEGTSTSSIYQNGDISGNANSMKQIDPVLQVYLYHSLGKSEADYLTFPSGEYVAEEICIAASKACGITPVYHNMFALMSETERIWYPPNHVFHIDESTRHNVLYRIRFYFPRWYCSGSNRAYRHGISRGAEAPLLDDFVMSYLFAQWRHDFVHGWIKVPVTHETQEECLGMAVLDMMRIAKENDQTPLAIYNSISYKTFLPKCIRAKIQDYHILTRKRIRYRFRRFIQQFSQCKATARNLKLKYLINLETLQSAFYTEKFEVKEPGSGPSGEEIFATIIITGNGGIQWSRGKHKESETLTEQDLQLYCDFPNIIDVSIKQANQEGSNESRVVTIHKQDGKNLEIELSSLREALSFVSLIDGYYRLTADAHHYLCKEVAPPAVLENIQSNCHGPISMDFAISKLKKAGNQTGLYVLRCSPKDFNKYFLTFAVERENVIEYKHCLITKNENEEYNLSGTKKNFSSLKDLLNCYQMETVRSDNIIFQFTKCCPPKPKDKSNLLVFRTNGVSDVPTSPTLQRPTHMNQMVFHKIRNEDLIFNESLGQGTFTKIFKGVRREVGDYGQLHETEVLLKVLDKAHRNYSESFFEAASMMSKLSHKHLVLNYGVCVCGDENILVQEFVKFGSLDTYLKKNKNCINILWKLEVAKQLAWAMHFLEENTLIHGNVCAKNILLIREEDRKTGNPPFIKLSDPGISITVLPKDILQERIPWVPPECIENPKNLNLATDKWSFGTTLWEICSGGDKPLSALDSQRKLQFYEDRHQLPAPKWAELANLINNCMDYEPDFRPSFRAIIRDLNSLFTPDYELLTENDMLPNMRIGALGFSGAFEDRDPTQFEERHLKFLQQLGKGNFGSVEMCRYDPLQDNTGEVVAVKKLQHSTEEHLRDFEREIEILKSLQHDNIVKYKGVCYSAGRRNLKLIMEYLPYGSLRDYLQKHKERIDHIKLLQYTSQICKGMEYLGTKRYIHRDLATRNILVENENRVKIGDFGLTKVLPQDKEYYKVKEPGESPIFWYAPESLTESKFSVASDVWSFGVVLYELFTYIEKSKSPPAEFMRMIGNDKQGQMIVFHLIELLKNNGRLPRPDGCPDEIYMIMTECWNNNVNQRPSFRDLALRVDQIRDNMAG
- Experimental details: phosphorylation enrichment, bacterial display (enrichment ratio); higher = better substrate or ligand; peptides without Tyr show the background
We begin with a simple list: items and their reported phosphorylation enrichment.
Provide a numeric answer; units are not to be included.

# example entries with known answers
Sequence record: RASSSYRETPS [SORBS1_Y79]
Parameter: phosphorylation enrichment
Endpoint result: 1.49

Sequence record: GRPMDYHVSIT [OTOF_Y254_Q255H]
Parameter: phosphorylation enrichment
Endpoint result: 0.83

Sequence record: ADKSAYLMGLN [MYH7_Y386]
Parameter: phosphorylation enrichment
Endpoint result: 0.67

Sequence record: FAKTQYPDIFA [CRX_Y63_V66I_YF]
Parameter: phosphorylation enrichment
Endpoint result: 0.483

Sequence record: ALAHKYHGGGG [HBB_Y146]
Parameter: phosphorylation enrichment
Endpoint result: 0.503

Entry SLDLSYFHTSS [EMD_Y181_P183H_YF] has what phosphorylation enrichment? 1.06

Then what about the sequence EDSEFYKAFEE [CASQ2_Y179_YF] ? 1.07
